molecular target: T1, GST-tagged hNav1.7-loopA3 (human, UniProt Q15858 269-339); test: Biacore SPR, antigen on CM5 chip, mAb in flow
T1 construct: monomeric GST-tagged peptide; also called hNav1.7-loopA3-GST; Nav1.7-loopA3-GST; not shown: GST tag
T1 sequence (Q15858 269-339 limits assumed): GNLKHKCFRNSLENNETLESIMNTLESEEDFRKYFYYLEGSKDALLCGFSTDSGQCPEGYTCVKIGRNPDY
Each record here notes measured Kd.
Numeric only. Scale: pM

Recorded Kd, per entry:
3E1 (antibody, human IgG1, V domains shown) VH: EVQVQESGGGLVQPGGSLRLSCAASGFTFSSYWMYWVRQAPGKGLEWVSAINTGGGSTYYADSVKGRFTISRDNAKNTLYLQMNSLKPEDTALYYCARGPGYSGKYIEGWAYWGQGTQVTVSS VL: DIVMTQSPSSVTASVGEKVTINCKSSQSVVSGSKQKSYLNWYQQRPGQSPRLLIYYASTQESGIPDRFSGSGSTTDFTLTISSVQPEDAAVYYCQQAYSAPYSFGSGTRLEIK ... 216
6H8 (antibody, human IgG1, V domains shown) VH: EVQLVESGGGLVQPGGTLRLSCAASGFTFSNYWMHWVRQAPGKGLEWVSVIDRGGGGTRYADSVKGRFTISRDNAKNTLYLRMNSLKPEDTALYYCTRDRNGEYDYWGRGTQVTVSS VL: DIQMTQSPSSVTASAGEKVTINCKSSQSVLYSSNQKNYLAWYQQRLGQSPRLLIYWASTRESGVPDRFSGSGSTTDFTLTINNFQPEDAAVYYCQQGYSAPLTFGQGTKVELK ... 0.609
3F11 (antibody, human IgG1, V domains shown) VH: QVQLVESGGGLVQPGGSLRLSCAASGFTFSSYWMYWVRQAPGKGLEWVSAINTGGGSTYYADSVKGRFTISRDNAKNTLYLQMNSLKPEDTALYYCARGPGYSGSYIEGWAYWGQGTQVTVSS VL: DIVMTQSPTSVTASVGEKVTINCKSSQSVVSGSNQKSYLNWYQQRPGQSPRLLIYHASTQESGIPDRFSGSGSTTDFTLTISSVQPEDAAVYYCQQAYNNPYSFGSGTRLEIK ... 37.4

Inquiry: Give Kd for 4H6 (antibody, human IgG1, V domains shown) VH: QVQLQESGPGLVKPSQTLSLTCTVSGGSITNYGWSWIRQPPGKGLEWMGVIAYDGSTYYSPSLKSRTSISRDTSKNQFSLQLSSVTPEDTAVYYCASAMVTTSSPWVKTFGAWGQGTQVTVSS VL: QAGLTQPPSVSGSPGKTVTISCAGTSSDVGYGNYVSWYQQLPGMAPKLLLYSVNKRASGIADRFSGSKSGNTASLTISGLQSEDEADYYCGCYDSSLSTPVFGGGTKLTVLG
Reply text: 50.5

Inquiry: Return Kd for the following binder: 2D11 (antibody, human IgG1, V domains shown) VH: EVQLQESGPGLVKPSQTLSLTCTVSGGSITNSYYASSWIRQPPGKGLEWMGVIIYDGSTYYSPSLKSRTSISRDTSKNQFSLQLSSVTPEDTAVYYCARGLRVAGSYFTDFGTWGQGTQVTVSS VL: SYELTQSPSVSVALRQAAKITCGGDNIASKHAHWYQQKPGQSPVLVIYKDSNRPSGIPERFSGSNSGNTATLTVSGAQAEDEADYYCQVWDSSANAAVFGGGTHLTVLG
Reply text: 87.9

Inquiry: Read off the recorded Kd for 4F7 (antibody, human IgG1, V domains shown) VH: QVQLQESGPGLVKPSQTLSLTCTVSGGSITTSFYAWSWIRQPPGKGLEWMGVIAYDGRTFYSPSLKSRTHISRDTSKNQFSLQLSSVTPEDTAVYYCARGGVVAWSYDYWGQGTQVTVSS VL: SYELTQSPSVSVALRQTAKITCGGNDIGSKSTQWYQQKAGQAPVLVIYADSRRPSGIPERFSGSNSGNTATLTISGAQAEDEADYYCQVWDSRADAAVFGGGTHLTVLG
Reply text: 82.5
